pIC50: −log10 of the molar value.
Below are pIC50 values recorded for UniProt Q13315.
Sequence (Q13315 whole entry): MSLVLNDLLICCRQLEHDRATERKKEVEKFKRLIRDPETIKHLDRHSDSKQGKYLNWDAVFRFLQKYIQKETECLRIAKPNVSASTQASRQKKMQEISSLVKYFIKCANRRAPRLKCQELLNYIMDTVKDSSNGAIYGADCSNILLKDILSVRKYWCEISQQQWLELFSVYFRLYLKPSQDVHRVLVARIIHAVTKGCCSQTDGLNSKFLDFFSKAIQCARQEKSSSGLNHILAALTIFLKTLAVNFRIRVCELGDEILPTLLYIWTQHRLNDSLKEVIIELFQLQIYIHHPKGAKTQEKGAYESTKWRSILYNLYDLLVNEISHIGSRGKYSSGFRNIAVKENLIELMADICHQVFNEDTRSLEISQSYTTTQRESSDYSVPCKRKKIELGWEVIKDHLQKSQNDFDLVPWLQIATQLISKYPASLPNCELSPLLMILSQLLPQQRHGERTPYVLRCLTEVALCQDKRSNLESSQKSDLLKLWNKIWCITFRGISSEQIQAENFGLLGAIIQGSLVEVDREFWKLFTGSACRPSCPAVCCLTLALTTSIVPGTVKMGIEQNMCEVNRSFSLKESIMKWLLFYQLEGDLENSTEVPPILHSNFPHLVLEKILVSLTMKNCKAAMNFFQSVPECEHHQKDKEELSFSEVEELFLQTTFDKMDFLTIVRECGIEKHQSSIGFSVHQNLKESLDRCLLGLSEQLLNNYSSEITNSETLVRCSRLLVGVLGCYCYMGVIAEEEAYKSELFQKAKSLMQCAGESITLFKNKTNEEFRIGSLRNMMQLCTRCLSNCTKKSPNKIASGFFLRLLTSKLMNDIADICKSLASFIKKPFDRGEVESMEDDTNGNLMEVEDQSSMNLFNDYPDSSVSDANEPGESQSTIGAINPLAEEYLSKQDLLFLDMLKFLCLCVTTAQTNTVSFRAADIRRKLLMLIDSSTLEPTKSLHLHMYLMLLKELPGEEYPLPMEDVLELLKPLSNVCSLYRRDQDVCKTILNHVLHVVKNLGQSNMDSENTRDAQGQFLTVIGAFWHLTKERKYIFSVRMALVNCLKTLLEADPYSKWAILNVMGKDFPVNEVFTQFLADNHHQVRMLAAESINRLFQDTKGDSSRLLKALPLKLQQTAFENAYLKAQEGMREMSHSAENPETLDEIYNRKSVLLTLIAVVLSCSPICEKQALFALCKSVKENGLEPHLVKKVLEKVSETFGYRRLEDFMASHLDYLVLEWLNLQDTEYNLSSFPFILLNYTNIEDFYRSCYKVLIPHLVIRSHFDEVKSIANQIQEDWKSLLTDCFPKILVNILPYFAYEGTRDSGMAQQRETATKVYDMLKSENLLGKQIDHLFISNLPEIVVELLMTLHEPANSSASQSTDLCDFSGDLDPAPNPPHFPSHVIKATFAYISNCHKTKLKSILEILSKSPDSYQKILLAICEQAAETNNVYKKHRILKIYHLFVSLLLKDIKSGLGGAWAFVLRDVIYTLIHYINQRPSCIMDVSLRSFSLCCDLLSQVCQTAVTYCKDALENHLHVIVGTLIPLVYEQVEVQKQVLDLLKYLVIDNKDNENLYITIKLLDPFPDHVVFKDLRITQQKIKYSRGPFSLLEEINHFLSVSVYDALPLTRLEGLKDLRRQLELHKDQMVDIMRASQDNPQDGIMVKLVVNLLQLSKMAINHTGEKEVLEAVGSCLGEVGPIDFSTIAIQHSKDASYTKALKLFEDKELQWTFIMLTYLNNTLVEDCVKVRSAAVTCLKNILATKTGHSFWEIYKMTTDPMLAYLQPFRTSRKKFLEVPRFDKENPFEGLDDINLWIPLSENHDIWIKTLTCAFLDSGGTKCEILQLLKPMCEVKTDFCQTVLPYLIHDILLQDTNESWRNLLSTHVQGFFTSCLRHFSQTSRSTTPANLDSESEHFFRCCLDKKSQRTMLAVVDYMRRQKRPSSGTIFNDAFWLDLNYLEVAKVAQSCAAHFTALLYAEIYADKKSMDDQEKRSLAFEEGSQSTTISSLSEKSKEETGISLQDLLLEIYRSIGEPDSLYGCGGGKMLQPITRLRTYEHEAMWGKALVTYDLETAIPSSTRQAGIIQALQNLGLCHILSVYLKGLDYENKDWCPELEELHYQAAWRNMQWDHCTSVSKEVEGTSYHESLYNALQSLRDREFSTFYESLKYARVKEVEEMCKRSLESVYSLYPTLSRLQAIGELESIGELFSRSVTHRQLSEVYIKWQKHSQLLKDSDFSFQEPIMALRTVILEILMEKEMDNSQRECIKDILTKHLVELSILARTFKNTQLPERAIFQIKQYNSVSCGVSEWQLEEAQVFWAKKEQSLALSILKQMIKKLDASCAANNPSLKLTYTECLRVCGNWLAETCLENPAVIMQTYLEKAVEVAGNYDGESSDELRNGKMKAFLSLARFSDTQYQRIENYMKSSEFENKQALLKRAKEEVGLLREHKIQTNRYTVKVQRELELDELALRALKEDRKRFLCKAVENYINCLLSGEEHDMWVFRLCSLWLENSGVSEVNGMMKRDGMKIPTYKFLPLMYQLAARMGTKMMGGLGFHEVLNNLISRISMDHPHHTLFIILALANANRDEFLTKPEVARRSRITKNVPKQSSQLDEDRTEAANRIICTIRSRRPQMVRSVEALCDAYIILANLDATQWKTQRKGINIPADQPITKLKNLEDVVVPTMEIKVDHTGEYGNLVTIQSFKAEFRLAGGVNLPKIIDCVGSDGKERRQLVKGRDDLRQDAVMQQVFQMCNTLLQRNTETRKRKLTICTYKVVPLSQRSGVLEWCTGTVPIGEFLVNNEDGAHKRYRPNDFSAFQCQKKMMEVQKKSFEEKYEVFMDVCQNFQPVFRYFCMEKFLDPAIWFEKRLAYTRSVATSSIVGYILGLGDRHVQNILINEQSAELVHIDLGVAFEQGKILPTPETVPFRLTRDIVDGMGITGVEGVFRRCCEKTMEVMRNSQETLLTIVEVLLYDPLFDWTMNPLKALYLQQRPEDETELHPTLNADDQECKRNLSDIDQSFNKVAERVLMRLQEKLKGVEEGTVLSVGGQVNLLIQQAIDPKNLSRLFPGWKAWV
Endpoint Label: pIC50

- COc1ncc(-c2ccc3ncc4c(c3c2)n(CC(F)(F)F)c(=O)n4C)cc1NS(=O)(=O)N1CCNCC1 [Compound 32]: 9.22
- COc1ncc(-c2ccc3ncc4c(c3c2)n(C(C)C)c(=O)n4C)cc1NS(=O)(=O)N1CCNCC1 [Compound 29]: 9.15
- COc1ncc(-c2ccc3ncc4c(c3n2)n(C2CC2)c(=O)n4C)cc1NS(=O)(=O)N1CCNCC1 [Compound 28]: 9.22
- COc1ncc(-c2ccc3ncc4c(c3c2)n(C2CC2)c(=O)n4C)cc1NS(=O)(=O)N1CCNCC1 [Compound 2]: 9.00
- COc1ncc(-c2ccc3ncc4c(c3c2)n([C@@H]2C[C@@H]2F)c(=O)n4C)cc1NS(=O)(=O)N1CCNCC1 [Compound 27]: 9.15
- COc1ncc(-c2ccc3ncc4c(C)nc(C5CC5)n4c3c2)cc1NS(=O)(=O)N1CCNCC1 [Compound 31]: 9.40
- COCC1(n2c(=O)n(C)c3cnc4ccc(-c5cnc(OC)c(NS(=O)(=O)N6CCNCC6)c5)cc4c32)CC1 [Compound 30]: 9.00
- COc1ncc(-c2ccc3ncc4cnc(C5CC5)n4c3c2)cc1NS(=O)(=O)N1CCNCC1 [Compound 1]: 9.30

----------
# pIC50 values compiled below
Biological target: Human FRAP1 (mTOR) recombinant protein (Homo sapiens)
Construct: GST
Sequence (P42345 1360-2549 limits assumed): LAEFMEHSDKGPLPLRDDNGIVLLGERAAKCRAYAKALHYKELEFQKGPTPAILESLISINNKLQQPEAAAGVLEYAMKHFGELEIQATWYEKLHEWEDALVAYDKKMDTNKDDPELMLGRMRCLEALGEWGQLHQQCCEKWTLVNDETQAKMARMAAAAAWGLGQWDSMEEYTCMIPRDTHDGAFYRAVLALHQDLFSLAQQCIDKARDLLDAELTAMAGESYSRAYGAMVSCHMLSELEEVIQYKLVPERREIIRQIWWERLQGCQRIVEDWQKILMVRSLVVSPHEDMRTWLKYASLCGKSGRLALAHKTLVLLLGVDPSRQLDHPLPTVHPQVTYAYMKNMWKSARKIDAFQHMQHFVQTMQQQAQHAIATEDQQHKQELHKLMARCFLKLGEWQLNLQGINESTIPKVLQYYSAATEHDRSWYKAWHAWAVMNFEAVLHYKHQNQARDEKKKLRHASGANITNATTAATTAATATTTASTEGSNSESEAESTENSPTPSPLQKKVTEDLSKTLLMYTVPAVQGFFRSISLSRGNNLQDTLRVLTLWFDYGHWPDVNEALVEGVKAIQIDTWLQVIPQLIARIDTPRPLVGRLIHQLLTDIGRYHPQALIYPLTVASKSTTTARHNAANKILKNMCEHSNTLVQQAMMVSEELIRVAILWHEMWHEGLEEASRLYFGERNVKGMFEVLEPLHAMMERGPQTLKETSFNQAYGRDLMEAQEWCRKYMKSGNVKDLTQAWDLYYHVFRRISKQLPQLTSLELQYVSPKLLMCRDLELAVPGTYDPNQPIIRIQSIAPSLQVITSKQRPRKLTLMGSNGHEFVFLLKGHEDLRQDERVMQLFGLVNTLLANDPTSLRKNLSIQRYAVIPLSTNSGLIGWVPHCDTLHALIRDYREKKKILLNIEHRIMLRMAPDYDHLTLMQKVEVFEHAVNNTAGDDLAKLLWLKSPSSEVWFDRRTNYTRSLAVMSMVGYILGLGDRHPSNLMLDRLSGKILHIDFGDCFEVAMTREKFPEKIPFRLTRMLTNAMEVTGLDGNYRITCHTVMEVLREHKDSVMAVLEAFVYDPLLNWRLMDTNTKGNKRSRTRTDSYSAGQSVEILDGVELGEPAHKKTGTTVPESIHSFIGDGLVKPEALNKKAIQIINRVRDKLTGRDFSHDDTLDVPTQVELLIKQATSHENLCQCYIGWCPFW
Assay: FRAP1 (mTOR) kinase activity, LanthaScreen TR-FRET
Conditions: 10 μM ATP, 0.4 μM GFP-4EBP1; read-out: FRAP1 (mTOR) (Enzyme, IC50)
pIC50: −log10 of the molar value.
Endpoint Label: pIC50

• COCC1(n2c(=O)n(C)c3cnc4ccc(-c5cnc(OC)c(NS(=O)(=O)N6CCNCC6)c5)cc4c32)CC1 = 8.34
• COc1ncc(-c2ccc3ncc4c(c3c2)n(C2CC(F)(F)C2)c(=O)n4C)cc1NS(=O)(=O)N1CCNCC1 = 7.97
• COc1ncc(-c2ccc3ncc4c(c3c2)n(C2CC2)c(=O)n4C)cc1NS(=O)(=O)C1CCNCC1 = 7.95
• COc1ncc(-c2ccc3ncc4c(c3n2)n(C2CC2)c(=O)n4C)cc1NS(=O)(=O)N1CCNCC1 = 8.55
• COc1ncc(-c2ccc3ncc4cnc(C5CCC5)n4c3c2)cc1NS(=O)(=O)N1CCNCC1 = 8.21
